target: rOs1BGlu4 (Oryza sativa, UniProt Q5N863); construct: gene BGLU4; full-length ORF (483 aa, no signal peptide, about 55 kDa) in pET32a(+), E. coli Origami B(DE3); Trx-His6 tag removed with enterokinase; assay: inhibition of pNPGlc hydrolysis, […] nm; assay type: biochemical; conditions: read-out: Relative activity remaining (%)
Sequence (Q5N863 whole entry): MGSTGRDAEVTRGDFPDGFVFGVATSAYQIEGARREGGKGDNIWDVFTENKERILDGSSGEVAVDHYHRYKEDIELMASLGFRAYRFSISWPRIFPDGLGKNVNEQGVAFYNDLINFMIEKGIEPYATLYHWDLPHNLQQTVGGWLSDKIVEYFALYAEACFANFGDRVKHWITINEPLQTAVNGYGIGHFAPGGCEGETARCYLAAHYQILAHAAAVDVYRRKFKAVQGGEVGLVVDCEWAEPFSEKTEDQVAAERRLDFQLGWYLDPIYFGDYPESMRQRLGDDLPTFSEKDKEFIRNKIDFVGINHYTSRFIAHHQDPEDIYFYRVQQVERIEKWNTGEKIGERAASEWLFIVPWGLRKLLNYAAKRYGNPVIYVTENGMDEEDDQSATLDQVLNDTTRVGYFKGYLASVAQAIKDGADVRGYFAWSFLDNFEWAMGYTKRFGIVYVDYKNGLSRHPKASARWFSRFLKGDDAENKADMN
# strict inequality: remaining activity at 10000 µM < 80% yields rule met, everything else yields rule not met

COMPOUND	LABEL CLASS
OC[C@H]1OC(O)[C@H](O)[C@@H](O)[C@@H]1O (stereo partly drawn)	rule not met
OC1OC[C@H](O)[C@H](O)[C@H]1O (stereo partly drawn)	rule met
OC1OC[C@@H](O)[C@H](O)[C@H]1O (stereo partly drawn)	rule not met
OC[C@H]1OC(O)[C@@H](O)[C@@H](O)[C@@H]1O (stereo partly drawn)	rule met
N[C@H]1C(O)O[C@H](CO)[C@@H](O)[C@@H]1O (stereo partly drawn)	rule not met

Does this compound meet the criterion remaining activity at 10000 µM < 80%? OC[C@H]1OC(O)[C@H](O)[C@@H](O)[C@H]1O (stereo partly drawn)
rule not met
